Observation Type: melting point

Some compounds with known melting point results, for comparison:
| Compound | melting point |
| --- | --- |
| COc1cc2c(cc1O)CN(C1CC=CC(=O)C1)CC2 (centres undefined) | 254 to 257 °C |
| O=C(CBr)c1csc2ccccc12 | 138 to 139 °C |
| CC(=O)Nc1ccc(F)cc1[N+](=O)[O-] | 70 to 73 °C |
| Brc1cccc(-c2cc[nH]n2)c1 | 73 to 74 °C |
| O=C(O)c1cccc(-c2cccnc2)c1 | 202 to 206 °C |
| CC1CCCC=CC2CC(O)CC2C(O)C=CC(=O)O1 (centres undefined) | 201 to 205 °C |
| CN1CCN(c2ccccc2N)CC1 | 101 to 102 °C |
| O=S(=O)(CS(=O)(=O)c1ccccc1)c1ccccc1 | 117 to 123 °C |

We next turn to a different compound, shown below.
For the compound shown here, CCCC(CCC)C(C(=O)O)C(=O)OCC (centres undefined) , give the reported melting point.
30 to 34 °C

---

Observation Type: melting point

| Compound | Result |
| --- | --- |
| CCCCCC=CC(=O)O | 5 to 6 °C |
| C/C(=N\O)c1cc(C(C)(C)C)c(O)c(C(C)(C)C)c1 | 200 to 201 °C |
| CC1=NN(c2ccccc2)C(=O)C1=C(Br)C1C(=O)N(c2ccccc2)N=C1C (centres undefined) | 218 to 219 °C |
| CC(=O)c1sc(-c2cccs2)nc1C | 121 to 122 °C |
| O=C=Nc1ccc(Cl)c(C(F)(F)F)c1 | 35 to 36 °C |

For the compound shown here, Cn1nc(C(C)(C)C)cc1C(=O)O , give the reported melting point.
151 to 154 °C

O=C=Nc1cccc(-c2ncccn2)c1 ?
45 to 47 °C

C#CC(C)(C)Oc1ccc(C#N)cc1 ?
30 to 32 °C

CSc1ccccc1C(=O)O ?
170 to 173 °C

---

Listing of recorded melting point by entry.

Some compounds with known melting point results, for comparison:
| Compound | melting point |
| --- | --- |
| N#Cc1ccc2c(c1)COC2=O | 201 to 205 °C |
| Cc1cc(Oc2ccc(N)cn2)cc(C)c1Cl | 96 to 98 °C |
| CN(C(=S)Cl)c1ccc(Cl)cc1 | 76 to 78 °C |
| Cc1nc(CC(=O)O)cs1 | 124 to 125 °C |

For the compound shown here, CCOC(=O)C(C)Oc1ccc(Oc2nc3ccc(Cl)cc3o2)cc1 (centres undefined) , give the reported melting point.
90 °C

O=C(Cl)c1cccc2ccsc12 ?
84 to 86 °C

Cc1cc2ccccc2nc1Cl ?
83 to 84 °C

NC(=O)c1cc(F)ccc1F ?
114 to 116 °C

CC(CCC(=O)O)C1CCC2C3C(=O)CC4CC(C(=O)O)CCC4(C)C3CC(C(=O)O)C12C (centres undefined) ?
207 to 209 °C

---

Listing of recorded melting point by entry.

Some compounds with known melting point results, for comparison:
| Smiles Record | melting point |
| --- | --- |
| NNC(=S)NN | 168 to 172 °C |
| Cc1nc(C(N)=S)cs1 | 201 to 203 °C |
| O=[N+]([O-])c1nc[nH]n1 | 212 to 214 °C |
| CCCC(=O)Oc1c[nH]c2cc(Cl)c(Br)cc12 | 96 to 100 °C |

For the compound shown here, O=C(O)c1cc(I)cc(I)c1I , give the reported melting point.
223 to 228 °C

O=[N+]([O-])c1ccc(-c2ccc([N+](=O)[O-])cc2Cl)cc1 ?
144 to 146 °C

---

Listing of recorded melting point by entry.

Some compounds with known melting point results, for comparison:
| Compound | Result |
| --- | --- |
| O=C1OC(=O)C2CC(c3ccccc3)CCC12 (stereo not given) | 105 to 106 °C |
| C1COCCN2CCOCCOCCN(CCO1)CCOCCOCC2 | 68 to 72 °C |
| N#Cc1ccccc1-n1ccnc1 | 148 to 151 °C |

For the compound shown here, O=C(O)CCCCCCCCCCCCCCO , give the reported melting point.
97 to 99 °C

O=C(O)CCSCSCCC(=O)O ?
138 to 140 °C

---

Listing of recorded melting point by entry.

Some molecules with known melting point results, for comparison:
| Smiles Record | melting point |
| --- | --- |
| O=C(Cl)c1ccccc1I | 30 to 32 °C |
| CN(C)C1(C#N)CCOCC1 | 51 to 52 °C |
| CC(C)(C)n1nc(-c2ccc(Cl)cc2)c(C#N)c1N | 154 to 155 °C |

We next turn to a different molecule, shown below.
For the molecule shown here, C=CCOc1ccc2c(=O)cc(C(=O)OCC)oc2c1CCC , give the reported melting point.
84 to 86 °C

---

Listing of recorded melting point by entry.

| Molecule | melting point |
| --- | --- |
| Cc1cc(C)cc(C(=O)N(NC(=O)c2ccccc2)C(C)(C)C)c1 | 206 °C |
| OCc1ccc(-c2nccs2)cc1 | 94 to 97 °C |
| CN1C(=O)CN=C(c2ccccc2)c2cc([N+](=O)[O-])ccc21 | 157 °C |
| Cc1ccc(-c2ccccc2)cc1N | 58 to 60 °C |

For the molecule shown here, O=C(c1ccc(Cl)cc1)c1cc2c(cc1Br)OCCO2 , give the reported melting point.
129 to 130 °C

O[C@@H]1CCCC[C@H]1NCc1ccccc1 (relative stereo) ?
69 to 72 °C

Cc1ccc2ncoc2c1 ?
29 to 31 °C

---

Observation Type: melting point

For the compound shown here, O=C(O)c1ccccc1OC1CCOCC1 , give the reported melting point.
53 to 54 °C

Cc1cc(N)c2ncccc2c1 ?
73 °C

O=Cc1cc(F)cc2c1OCOC2 ?
113 to 114 °C

---

Observation Type: melting point

Some compounds with known melting point results, for comparison:
| Smiles Record | melting point |
| --- | --- |
| CCOC(=O)c1ccc(N2C(=O)CCC2=O)cc1 | 158 to 160 °C |
| CC(=O)N1CCc2cc(Br)ccc21 | 124 to 127 °C |
| O=C(O)CSC=Cc1ccccc1 | 81 to 84 °C |
| CC(C)n1c2c(c(=O)[nH]c1=O)CCCC2 | 229 to 230 °C |
| CCCCNC(=O)NCCCC | 74 to 75 °C |

For the compound shown here, NC(=S)Nc1cccc2ccccc12 , give the reported melting point.
193 to 197 °C

COC(=O)c1ccc2ncccc2c1 ?
88 to 89 °C

COc1ccc(C=O)c(Cl)c1OC ?
71 to 72 °C

O=S(=O)(Cl)c1occc1C1OCCO1 ?
34 to 39 °C

CC(=O)c1c(C)c(C(=O)O)n(C)c1C ?
135 to 137 °C

---

Listing of recorded melting point by entry.

| Compound | melting point |
| --- | --- |
| CC(C)(C)OC(=O)N1CCCC(Oc2ccccc2[N+](=O)[O-])C1 (configuration not stated) | 74 to 75 °C |
| Oc1cccc2[nH]c3ccccc3c12 | 169 to 173 °C |
| Clc1ccc(OCc2ccccc2)cc1 | 70 to 72 °C |
| CC(=O)NC1C(Oc2ccccc2[N+](=O)[O-])OC(CO)C(O)C1O (configuration not stated) | 204 to 208 °C |
| CC(=O)OCC1OC(C#N)=CC(OC(C)=O)C1OC(C)=O (configuration not stated) | 112 to 115 °C |

For the compound shown here, CC(C)(C)OC(=O)N1CCN(c2ccccc2C(=O)O)CC1 , give the reported melting point.
165 to 166 °C

Cc1cnc(Cl)c([N+](=O)[O-])c1 ?
46 to 50 °C

O=C(NCNN(CNC(=O)c1ccccc1)CNC(=O)c1ccccc1)c1ccccc1 ?
123 to 125 °C

COC(=O)c1sccc1Oc1ccc(Cl)cc1[N+](=O)[O-] ?
125 to 128 °C

CN1C2CC(=O)CC1C(O)C2 (configuration not stated) ?
120 to 123 °C

O=Cc1cc(C=O)c(O)c(C=O)c1 ?
179 to 180 °C

CC1(C)CC(=O)C=C(C(=O)O)O1 ?
167 to 171 °C

CCOC(=O)NC(=S)Nc1sc2c(c1C(=O)OCC)CCCC2 ?
187 to 190 °C

Cc1ncoc1C(=O)O ?
239 to 240 °C

---

Observation Type: melting point

Some compounds with known melting point results, for comparison:
| Compound | melting point |
| --- | --- |
| COc1ccccc1C(=O)c1cc2c(cc1Br)OCCO2 | 95 to 97 °C |
| O=[N+]([O-])c1cc2c(cc1C/C(=N/Nc1ccccc1)c1ccccc1)n1n(-c3ccccc3)n21 | 197 to 198 °C |
| CC(C)(C)OC(=O)NCc1cccc(CO)c1 | 51 to 55 °C |
| CCOC(=O)c1c[nH]c(S)n1 | 191 to 193 °C |

We next turn to a different compound, shown below.
For the compound shown here, CC(CCC(=O)O)C1CCC2C3C=CC4CCCCC4(C)C3CCC12C (stereo not given) , give the reported melting point.
152 to 160 °C
